Provenance of the data: patent US20260132197A1

# studyTarget: T1, wild type human CD47 (Acro Biosystems, cat. no. CD7-H5227) (human, UniProt Q08722 19-139)
# T1 construct: Bought protein used as SPR analyte; also called Human CD47 wt; wild-type CD47
# T1 sequence (Q08722 19-139 limits assumed): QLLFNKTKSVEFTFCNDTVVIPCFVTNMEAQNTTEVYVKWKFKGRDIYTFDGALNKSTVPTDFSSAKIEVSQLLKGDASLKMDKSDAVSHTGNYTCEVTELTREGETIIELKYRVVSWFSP
# experimentalProtocol: SPR, IgG captured, CD47 in flow; exp 1;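 note: biacore T200 SPR using IgG from supernatants of transfected HEK293 cells, rate constants fitted to association and dissociation curves, Kd derived from koff over kon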
parameter: Kd (nM)
Write down the numeric answer in nM and omit the unit.

binder	quantityUnit	Kd
108VH5 / 108VL1.M5 (antibody, human IgG4 S228P, kappa, V domains shown, Full-length IgG4 (S228P), kappa; also called VH5 VL1.M5) VH: EVQLVQSGAEVKKPGASVKVSCKASGYSFTHHWIHWVRQAPGQGLEWMGMIDPSDSETRLSQKFKDRVTMTRDTSTSTVYMELSSLRSEDTAVYYCARLGRYYFDYWGQGTLVTVSS VL: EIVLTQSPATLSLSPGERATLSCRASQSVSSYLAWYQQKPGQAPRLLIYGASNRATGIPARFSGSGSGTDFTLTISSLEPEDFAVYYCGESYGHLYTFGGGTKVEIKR	nM	0.83
108VH5.M5 / 108VL1.M5 (antibody, human IgG4 S228P, kappa, V domains shown, Full-length IgG4 (S228P), kappa; also called VH5.M5 VL1.M5) VH: EVQLVQSGAEVKKPGASVKVSCKASGYTFTHHWIHWVRQAPGQGLEWMGMIDASDSETRLSQKFKDRVTMTRDTSTSTVYMELSSLRSEDTAVYYCARLGRYYFDYWGQGTLVTVSS VL: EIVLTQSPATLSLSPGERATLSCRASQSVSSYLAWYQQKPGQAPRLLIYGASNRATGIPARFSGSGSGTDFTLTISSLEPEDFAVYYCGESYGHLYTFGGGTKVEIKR	nM	1.3
108VH5.M9 / 108VL1.M5 (antibody, human IgG4 S228P, kappa, V domains shown, Full-length IgG4 (S228P), kappa; also called VH5.M9 VL1.M5) VH: EVQLVQSGAEVKKPGASVKVSCKASGYSFTHHWIHWVRQAPGQGLEWMGMIDASDSETRLSQKFQGRVTMTRDTSTSTVYMELSSLRSEDTAVYYCARLGRYYFDYWGQGTLVTVSS VL: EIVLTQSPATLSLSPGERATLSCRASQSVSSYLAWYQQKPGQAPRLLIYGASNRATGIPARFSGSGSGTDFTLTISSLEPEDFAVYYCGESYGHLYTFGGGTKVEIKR	nM	1.9
108VH4.M4-VL1.M1 (antibody, V domains shown, also called original humanized 108C10A6 antibody) VH: EVQLVQSGAEVKKPGSSVKVSCKASGYSFTHHWIHWVRQAPGQGLEWMGMIDASDSETRLSQKFKDRVTITADKSTSTAYMELSSLRSEDTAVYYCARLGRYYFDYWGQGTTVTVSS VL: EIVLTQSPATLSLSPGERATLSCRASENVGTYISWYQQKPGQAPRLLIYGASNRYTGIPARFSGSGSGTDFTLTISSLEPEDFAVYYCGESYGHLYTFGGGTKVEIK	nM	0.4
108VH5.M8 / 108VL1.M5 (antibody, human IgG4 S228P, kappa, V domains shown, Full-length IgG4 (S228P), kappa; also called VH5.M8 VL1.M5) VH: EVQLVQSGAEVKKPGASVKVSCKASGYSFTHHWIHWVRQAPGQGLEWMGMIDASDSETRYAQKFKDRVTMTRDTSTSTVYMELSSLRSEDTAVYYCARLGRYYFDYWGQGTLVTVSS VL: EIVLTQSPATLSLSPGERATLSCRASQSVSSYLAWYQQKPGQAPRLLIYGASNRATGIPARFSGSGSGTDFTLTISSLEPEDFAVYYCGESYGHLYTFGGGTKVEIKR	nM	3
108VH5.M6 / 108VL1.M5 (antibody, human IgG4 S228P, kappa, V domains shown, Full-length IgG4 (S228P), kappa; also called VH5.M6 VL1.M5) VH: EVQLVQSGAEVKKPGASVKVSCKASGYTFTHHYMHWVRQAPGQGLEWMGMIDASDSETRLSQKFKDRVTMTRDTSTSTVYMELSSLRSEDTAVYYCARLGRYYFDYWGQGTLVTVSS VL: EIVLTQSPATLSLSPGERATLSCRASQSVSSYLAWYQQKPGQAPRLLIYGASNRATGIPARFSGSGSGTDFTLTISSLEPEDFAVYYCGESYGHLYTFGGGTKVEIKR	nM	8

Quick check: Kd of chimeric antibody 108C10A6 (antibody, V domains shown, Chimeric antibody with mouse variable domains; captured through human Fc; also called VH / VL) VH: QMQLQQSGPQLVRPGASVKISCKTSGYSFTHHWIHWMKQRPGQGLEWIGMIDPSDSETRLSQKFKDKATLTVDASSSTAYMQLNSPTSEDSALYFCARLGRYYFDYWGQGTTLTVSS VL: NIVMTQSPRSMSMSVGERVTLSCKASENVGTYISWYQQKPDQSPKLLIYGASNRYTGVPDRFTGSGSGTDFTLTISTVQAEDLADYHCGESYGHLYTFGGGTKLEIK ? 0.2
